The origin of these recorded values is patent US12673946B2.

- System under test: human TRPV4 (Homo sapiens)
- Construct: host or cells: tetracycline-inducible Flp-In T-REx 293 cells
- Test summary: Hypotonicity-induced Ca2+ influx (Fluo-4, FDSS)
- Assay type: cell-based
- Test settings: Flp-In T-REx 293 cells stably expressing human TRPV4, compounds listed by potency bin (<10 nM Tables 96-1/96-2, <3 nM Table 97)
pIC50: −log10 of the molar value.
Could you please report measured pIC50 for the items listed next?

For human TRPV4 (Homo sapiens), give pIC50 of the listed compound: O=C([C@H](O)c1cccc(Cl)c1)N1CCCc2nc(C3(c4cccc(-c5cnn(C6CC6)c5)c4)CC3)[nH]c(=O)c2C1
> 8.00

For human TRPV4 (Homo sapiens), give pIC50 of the listed compound: O=C([C@H](O)c1cccc(C(F)(F)F)c1)N1CCCc2nc(C3(c4cccc(-c5cncs5)c4)CC3)[nH]c(=O)c2C1
> 8.00

For human TRPV4 (Homo sapiens), give pIC50 of the listed compound: CC(C)(C)c1cccc(-c2cccc([C@@H](O)C(=O)N3CCCc4nc(C5(c6ccccc6)CC5)[nH]c(=O)c4C3)c2)c1
> 8.52

For human TRPV4 (Homo sapiens), give pIC50 of the listed compound: CC(C)c1csc(C2(c3nc4c(c(=O)[nH]3)CN(C(=O)C(O)c3cccc(Cl)c3F)CCC4)CC2)c1 (stereo not shown)
> 8.52

For human TRPV4 (Homo sapiens), give pIC50 of the listed compound: O=C([C@H](O)c1cccc(-c2cc3ccccc3s2)c1)N1CCCc2nc(C3(c4cccc(Cl)c4)CC3)[nH]c(=O)c2C1
> 8.00

For human TRPV4 (Homo sapiens), give pIC50 of the listed compound: CC(C)c1cccc(C2(c3nc4c(c(=O)[nH]3)CN(C(=O)C(O)c3cccc(S(F)(F)(F)(F)F)c3)CCC4)CC2)c1 (stereo not shown)
> 8.00

For human TRPV4 (Homo sapiens), give pIC50 of the listed compound: O=C([C@H](O)c1cccc(-c2ccc(Cl)c(C(F)(F)F)c2)c1)N1CCc2nc(C3(c4ccccc4)CC3)[nH]c(=O)c2C1
> 8.52

====

- System under test: human TRPV4 (Homo sapiens)
- Construct: host or cells: tetracycline-inducible Flp-In T-REx 293 cells
- Test summary: Hypotonicity-induced Ca2+ influx (Fluo-4, FDSS)
- Assay type: cell-based
- Test settings: Flp-In T-REx 293 cells expressing human TRPV4, examples listed under heading 'Human IC50<50 nM'
pIC50: −log10 of the molar value.
Could you please report measured pIC50 for the items listed next?

Supply pIC50 value. Item: O=C([C@H](O)c1cccc(-c2cccc(Cl)c2)c1)N1CCCc2nc(C3(c4cc(C5CCCCC5)cs4)CC3)[nH]c(=O)c2C1
> 7.30

Supply pIC50 value. Item: O=C([C@H](O)c1cccc(-c2cc(F)cc(Cl)c2)c1)N1CCCc2nc(C3(c4cccc(-c5csc6ccccc56)c4)CC3)[nH]c(=O)c2C1
> 7.30

Supply pIC50 value. Item: CC(C)c1cccc(-c2cccc([C@@H](O)C(=O)N3CCCc4nc(C5(c6cccc(Cl)c6)CC5)[nH]c(=O)c4C3)c2)c1
> 7.30

====

Could you please report measured IC50 for the items listed next?
- System under test: human TRPV4 (Homo sapiens)
- Construct: host or cells: tetracycline-inducible Flp-In T-REx 293 cells
- Test summary: Hypotonicity-induced Ca2+ influx (Fluo-4, FDSS)
- Format: cell-based
- Test settings: Flp-In T-REx 293 cells expressing human TRPV4, examples listed under heading 'Human IC50<50 nM'

Supply IC50 value. Item: CN(C(=O)c1csc(C2(c3nc4c(c(=O)[nH]3)CN(C(=O)[C@H](O)c3cccc(C(F)(F)F)c3)CCC4)CC2)c1)C(c1ccccc1)c1ccccc1 [59-13]
< 50 nM

Supply IC50 value. Item: N#Cc1cccc(-c2cccc(C3(c4nc5c(c(=O)[nH]4)CN(C(=O)[C@H](O)c4cccc(C(F)(F)F)c4)CCC5)CC3)c2)c1 [42-5]
< 50 nM

Supply IC50 value. Item: O=C(C(O)c1cccc(-c2ccc(C(F)(F)F)cc2)c1)N1CCc2nc(C3(c4ccccc4)CC3)[nH]c(=O)c2C1 (stereo not drawn) [44-25]
< 50 nM

====

- System under test: human TRPV4 (Homo sapiens)
- Construct: host or cells: tetracycline-inducible Flp-In T-REx 293 cells
- Test summary: Hypotonicity-induced Ca2+ influx (Fluo-4, FDSS)
- Type: cell-based
- Test settings: Flp-In T-REx 293 cells stably expressing human TRPV4, compounds listed by potency bin (<10 nM Tables 96-1/96-2, <3 nM Table 97)
Could you please report measured IC50 for the items listed next?

Supply IC50 value. Item: O=C([C@H](O)c1cccc(C(F)(F)F)c1)N1CCc2nc(C3(c4cncc(-c5ccccc5)c4)CC3)[nH]c(=O)c2C1
< 3 nM

Supply IC50 value. Item: O=C(Cc1cccc(OCc2ccccc2)c1)N1CCCc2nc(C3(c4ccccc4)CC3)[nH]c(=O)c2C1
< 10 nM

Supply IC50 value. Item: O=C([C@H](O)c1cccc(C(F)(F)F)c1)N1CCc2nc(C3(c4cncc(C5CCCCC5)c4)CC3)[nH]c(=O)c2C1
< 10 nM

Supply IC50 value. Item: O=C(Cc1cccc(-c2cccc(Cl)c2)c1)N1CCCc2nc(C3(c4cccc(Cl)c4)CC3)[nH]c(=O)c2C1
< 3 nM

Supply IC50 value. Item: CC(C)(C)CC(=O)N1CCC(c2cccc(C3(c4nc5c(c(=O)[nH]4)CN(C(=O)[C@H](O)c4cccc(C(F)(F)F)c4)CCC5)CC3)c2)CC1
< 10 nM

Supply IC50 value. Item: CC(C)(C)c1cccc(C(O)C(=O)N2CCc3nc(C4(c5cccc(Cl)c5)CC4)[nH]c(=O)c3C2)c1 (stereo not shown)
< 10 nM

Supply IC50 value. Item: O=C([C@H](O)c1cccc(-c2cc(C(F)(F)F)ccc2Cl)c1)N1CCCc2nc(C3(c4ccccc4)CC3)[nH]c(=O)c2C1
< 3 nM

====

Could you please report measured IC50 for the items listed next?
- System under test: human TRPV4 (Homo sapiens)
- Construct: host or cells: tetracycline-inducible Flp-In T-REx 293 cells
- Test summary: Hypotonicity-induced Ca2+ influx (Fluo-4, FDSS)
- Type: cell-based
- Test settings: Flp-In T-REx 293 cells stably expressing human TRPV4, compounds listed by potency bin (<10 nM Tables 96-1/96-2, <3 nM Table 97)

For human TRPV4 (Homo sapiens), give IC50 of the listed molecule: O=C([C@H](O)c1cccc(C(F)(F)F)c1)N1CCCc2nc(C3(c4cc(-c5ccccc5)cs4)CC3)[nH]c(=O)c2C1
< 3 nM

For human TRPV4 (Homo sapiens), give IC50 of the listed molecule: Cc1cc(-c2cccc([C@@H](O)C(=O)N3CCCc4nc(C5(c6cccc(Cl)c6)CC5)[nH]c(=O)c4C3)c2)ccc1Cl
< 3 nM

For human TRPV4 (Homo sapiens), give IC50 of the listed molecule: O=C([C@H](O)c1cccc(C(F)(F)F)c1)N1CCCc2nc(C3(c4cc(CCC5COC5)cs4)CC3)[nH]c(=O)c2C1
< 10 nM

For human TRPV4 (Homo sapiens), give IC50 of the listed molecule: CC(C)c1cccc(C2(c3nc4c(c(=O)[nH]3)CN(C(=O)Cc3cccc(-c5cccc(C(F)(F)F)c5)c3)CC4)CC2)c1
< 10 nM

====

Could you please report measured IC50 for the items listed next?
- System under test: human TRPV4 (Homo sapiens, UniProt Q9HBA0)
- Construct: host or cells: tetracycline-inducible Flp-In T-REx 293 cells
- Sequence (Q9HBA0 whole entry): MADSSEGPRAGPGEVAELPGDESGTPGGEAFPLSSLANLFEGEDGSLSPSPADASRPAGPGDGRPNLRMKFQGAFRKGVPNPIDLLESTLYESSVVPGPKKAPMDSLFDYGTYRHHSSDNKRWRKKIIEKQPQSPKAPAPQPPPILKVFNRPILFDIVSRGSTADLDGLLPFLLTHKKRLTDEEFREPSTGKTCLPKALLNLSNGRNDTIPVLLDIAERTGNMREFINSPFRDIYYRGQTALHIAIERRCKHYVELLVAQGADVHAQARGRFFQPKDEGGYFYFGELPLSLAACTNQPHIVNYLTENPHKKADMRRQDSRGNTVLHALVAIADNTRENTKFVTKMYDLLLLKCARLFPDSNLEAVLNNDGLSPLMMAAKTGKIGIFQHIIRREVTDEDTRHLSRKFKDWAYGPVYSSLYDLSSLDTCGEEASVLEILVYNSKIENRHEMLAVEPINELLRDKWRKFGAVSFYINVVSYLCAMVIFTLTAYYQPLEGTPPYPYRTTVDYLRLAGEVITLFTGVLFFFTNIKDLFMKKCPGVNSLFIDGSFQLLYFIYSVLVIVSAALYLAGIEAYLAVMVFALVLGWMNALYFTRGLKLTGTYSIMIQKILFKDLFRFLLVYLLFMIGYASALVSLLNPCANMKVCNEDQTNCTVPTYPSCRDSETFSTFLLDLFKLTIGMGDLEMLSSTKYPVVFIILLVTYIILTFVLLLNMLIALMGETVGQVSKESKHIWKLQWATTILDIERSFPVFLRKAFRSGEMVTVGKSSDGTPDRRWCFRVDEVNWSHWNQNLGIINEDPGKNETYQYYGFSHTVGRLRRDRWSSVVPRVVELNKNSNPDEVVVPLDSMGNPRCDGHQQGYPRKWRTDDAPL
- Test summary: Hypotonicity-induced Ca2+ influx (Fluo-4, FDSS)
- Assay type: cell-based
- Test settings: Flp-In T-REx 293 cells stably expressing human TRPV4, compounds listed by potency bin (<10 nM Tables 96-1/96-2, <3 nM Table 97)

Supply IC50 value. Item: CN(C(=O)c1csc(C2(c3nc4c(c(=O)[nH]3)CN(C(=O)[C@H](O)c3cccc(C(F)(F)F)c3)CCC4)CC2)c1)C1CCCCC1
< 10 nM

Supply IC50 value. Item: O=C([C@H](O)c1cccc(C(F)(F)F)c1)N1CCCc2nc(C3(c4cccc(-c5ccccc5F)c4)CC3)[nH]c(=O)c2C1
< 10 nM

Supply IC50 value. Item: O=C(Cc1cccc(S(F)(F)(F)(F)F)c1)N1CCCc2nc(C3(c4cccc(Cl)c4)CC3)[nH]c(=O)c2C1
< 10 nM

Supply IC50 value. Item: CC(C)c1csc(C2(c3nc4c(c(=O)[nH]3)CN(C(=O)C(O)c3cccc(C(F)(F)F)c3F)CCC4)CC2)c1 (stereo not shown)
< 10 nM

Supply IC50 value. Item: O=C(Cc1cccc(C(F)(F)F)c1)N1CCCc2nc(C3(c4cccc(Cl)c4)CC3)[nH]c(=O)c2C1
< 10 nM

Supply IC50 value. Item: O=C([C@H](O)c1cccc(-c2cc(Cl)cc(C(F)(F)F)c2)c1)N1CCc2nc(C3(c4cccc(Cl)c4)CC3)[nH]c(=O)c2C1
< 10 nM

Supply IC50 value. Item: O=C(C(O)c1cccc(-c2cccc(OC(F)(F)F)c2)c1)N1CCCc2nc(C3(c4cncc(-c5ccccc5)c4)CC3)[nH]c(=O)c2C1 (stereo not shown)
< 3 nM
